Biological target: human α1H T-type channels (Homo sapiens, UniProt O95180)
Sequence (O95180 whole entry): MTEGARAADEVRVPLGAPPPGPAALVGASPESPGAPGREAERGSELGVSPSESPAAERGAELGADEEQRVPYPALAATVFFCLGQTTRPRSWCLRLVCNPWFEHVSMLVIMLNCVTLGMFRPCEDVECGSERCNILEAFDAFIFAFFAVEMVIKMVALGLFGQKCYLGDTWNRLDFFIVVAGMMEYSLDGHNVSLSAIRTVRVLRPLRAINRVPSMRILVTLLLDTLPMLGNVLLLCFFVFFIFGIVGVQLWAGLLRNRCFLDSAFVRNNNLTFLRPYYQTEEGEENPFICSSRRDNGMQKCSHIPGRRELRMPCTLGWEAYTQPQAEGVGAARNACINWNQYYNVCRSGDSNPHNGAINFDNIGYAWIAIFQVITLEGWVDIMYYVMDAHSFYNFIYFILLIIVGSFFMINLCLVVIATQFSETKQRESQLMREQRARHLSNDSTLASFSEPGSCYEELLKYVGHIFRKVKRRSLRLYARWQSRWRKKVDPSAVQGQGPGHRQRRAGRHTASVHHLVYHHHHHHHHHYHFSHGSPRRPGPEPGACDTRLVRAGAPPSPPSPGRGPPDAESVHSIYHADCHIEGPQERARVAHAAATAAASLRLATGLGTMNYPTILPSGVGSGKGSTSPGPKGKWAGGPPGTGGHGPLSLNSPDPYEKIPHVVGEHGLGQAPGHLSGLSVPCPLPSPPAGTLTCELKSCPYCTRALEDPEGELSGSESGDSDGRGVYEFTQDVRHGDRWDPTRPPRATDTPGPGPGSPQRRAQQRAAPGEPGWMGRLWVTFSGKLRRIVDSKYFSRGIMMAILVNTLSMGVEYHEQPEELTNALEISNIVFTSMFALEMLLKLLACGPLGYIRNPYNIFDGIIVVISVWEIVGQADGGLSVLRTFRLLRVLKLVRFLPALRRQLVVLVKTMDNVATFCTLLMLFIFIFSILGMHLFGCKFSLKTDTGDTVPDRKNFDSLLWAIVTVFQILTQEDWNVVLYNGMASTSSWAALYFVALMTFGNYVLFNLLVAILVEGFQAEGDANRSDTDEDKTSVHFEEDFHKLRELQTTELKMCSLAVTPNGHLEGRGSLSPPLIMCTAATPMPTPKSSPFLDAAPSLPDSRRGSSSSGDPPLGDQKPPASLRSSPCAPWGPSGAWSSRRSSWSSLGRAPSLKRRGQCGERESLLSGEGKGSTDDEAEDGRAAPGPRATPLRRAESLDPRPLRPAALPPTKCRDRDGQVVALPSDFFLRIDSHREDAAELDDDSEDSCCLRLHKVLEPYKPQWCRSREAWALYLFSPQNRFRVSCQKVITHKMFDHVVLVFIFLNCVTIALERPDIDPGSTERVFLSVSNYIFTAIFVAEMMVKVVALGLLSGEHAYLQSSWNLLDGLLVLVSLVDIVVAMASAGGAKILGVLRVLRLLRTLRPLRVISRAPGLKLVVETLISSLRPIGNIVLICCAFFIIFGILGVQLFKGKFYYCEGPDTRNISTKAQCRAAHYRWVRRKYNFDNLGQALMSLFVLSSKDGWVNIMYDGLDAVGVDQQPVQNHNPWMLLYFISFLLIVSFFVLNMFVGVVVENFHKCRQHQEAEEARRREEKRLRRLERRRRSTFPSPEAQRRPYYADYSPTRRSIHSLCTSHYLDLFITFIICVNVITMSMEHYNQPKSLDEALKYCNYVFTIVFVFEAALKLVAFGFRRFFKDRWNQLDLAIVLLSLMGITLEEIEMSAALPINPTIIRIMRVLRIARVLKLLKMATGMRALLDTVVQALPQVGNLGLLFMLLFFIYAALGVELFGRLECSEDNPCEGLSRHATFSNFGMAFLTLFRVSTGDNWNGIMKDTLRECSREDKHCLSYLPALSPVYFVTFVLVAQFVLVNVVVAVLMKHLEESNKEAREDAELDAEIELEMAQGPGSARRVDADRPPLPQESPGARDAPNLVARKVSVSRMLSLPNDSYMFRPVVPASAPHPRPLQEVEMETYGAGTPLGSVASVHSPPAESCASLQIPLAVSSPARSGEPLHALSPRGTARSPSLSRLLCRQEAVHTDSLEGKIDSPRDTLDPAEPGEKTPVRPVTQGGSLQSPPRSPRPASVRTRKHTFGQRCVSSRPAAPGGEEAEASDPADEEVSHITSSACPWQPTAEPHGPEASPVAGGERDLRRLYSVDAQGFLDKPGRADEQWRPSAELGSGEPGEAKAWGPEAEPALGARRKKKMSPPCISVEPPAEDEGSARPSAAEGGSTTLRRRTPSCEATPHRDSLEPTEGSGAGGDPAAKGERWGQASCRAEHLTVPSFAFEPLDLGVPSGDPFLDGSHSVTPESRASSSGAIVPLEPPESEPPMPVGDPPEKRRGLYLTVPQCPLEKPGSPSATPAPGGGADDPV
Experiment: T-type calcium channel block, whole cell patch clamp, α1H
Conditions: HEK cells stably expressing human α1H; mainly non-inactivated protocol; values above 10,000 nM represented as 10000
assayMetric: IC50 (nM)

{"molecule": "O=C(N[C@H]1CC[C@@H](S(=O)(=O)c2cc(F)cc(C(F)(F)F)c2)CC1)c1ccc(Cl)c(OC(F)(F)F)c1", "assayMetric": "IC50", "units": "nM", "censoringSign": "=", "assayResult": 630}
{"molecule": "CN(C(=O)CN[C@H]1CC[C@H](CS(=O)(=O)c2cccc(C(F)(F)F)c2)CC1)C(C)(C)C", "assayMetric": "IC50", "units": "nM", "censoringSign": ">", "assayResult": 10000}
{"molecule": "O=C(N[C@H]1CC[C@@](F)(S(=O)(=O)c2cc(F)cc(C(F)(F)F)c2)CC1)c1cc(C(F)(F)F)n[nH]1", "assayMetric": "IC50", "units": "nM", "censoringSign": "=", "assayResult": 1220}
{"molecule": "CC(C)(CNC(=O)c1cc(F)cc(Cl)c1)S(=O)(=O)c1cccc(C(F)(F)F)c1", "assayMetric": "IC50", "units": "nM", "censoringSign": "=", "assayResult": 2500}
{"molecule": "O=C(N[C@H]1CC[C@H](CS(=O)(=O)c2cccc(C(F)(F)F)c2)CC1)c1cc(F)cc(Cl)c1", "assayMetric": "IC50", "units": "nM", "censoringSign": "=", "assayResult": 3500}
{"molecule": "O=C(NC1CCC(S(=O)(=O)c2cccc(C(F)(F)F)c2)CC1)c1ccc(F)c(C(F)(F)F)c1 (stereo not shown)", "assayMetric": "IC50", "units": "nM", "censoringSign": ">", "assayResult": 10000}
{"molecule": "CC1(CNC(=O)c2ccc(C(F)(F)F)cn2)CCC(S(=O)(=O)c2cccc(C(F)(F)F)c2)CC1 (stereo not shown)", "assayMetric": "IC50", "units": "nM", "censoringSign": "=", "assayResult": 1110}
{"molecule": "CN(Cc1ccc(F)c(C(F)(F)F)c1)C(=O)C(C)(C)S(=O)(=O)c1cccc(C(F)(F)F)c1", "assayMetric": "IC50", "units": "nM", "censoringSign": "=", "assayResult": 3480}
{"molecule": "CC(C)(CNC(=O)c1ccc(Cl)c(Cl)c1)S(=O)(=O)c1cccc(C(F)(F)F)c1", "assayMetric": "IC50", "units": "nM", "censoringSign": "=", "assayResult": 2090}
{"molecule": "CC1(NC(=O)c2ccc(F)c(C(F)(F)F)c2)CCC(S(=O)(=O)c2cccc(C(F)(F)F)c2)CC1 (stereo not shown)", "assayMetric": "IC50", "units": "nM", "censoringSign": ">", "assayResult": 10000}

====

Target: CAv1.2 (Homo sapiens)
Test: FLIPR data, CAv1.2 channel blocking (Table 6)
Assay type: cell-based
Details: closed state, read-out: CAv1.2 IC50 Closed
pIC50: −log10 of the molar value.
assayMetric: pIC50

{"compound": "O=C(NC[C@H]1C[C@H](S(=O)(=O)c2cc(F)cc(C(F)(F)F)c2)C1)c1ccc(C(F)(F)F)cc1", "assayMetric": "pIC50", "censoringSign": "=", "assayResult": 5.09}
{"compound": "CC(C)(C[C@H]1C[C@@H](NC(=O)c2ccc(C(F)(F)F)cn2)C1)S(=O)(=O)c1cccc(C(F)(F)F)c1", "assayMetric": "pIC50", "censoringSign": "=", "assayResult": 5.20}
{"compound": "CC(C)(C[C@H]1C[C@@H](NC(=O)c2cnc(C(F)(F)F)nc2)C1)S(=O)(=O)c1cccc(C(F)(F)F)c1", "assayMetric": "pIC50", "censoringSign": "≤", "assayResult": 5.00}
{"compound": "CC(C)(C[C@H]1C[C@@H](NC(=O)c2ccc(C(F)(F)F)nc2)C1)S(=O)(=O)c1cccc(C(F)(F)F)c1", "assayMetric": "pIC50", "censoringSign": "≤", "assayResult": 5.00}
{"compound": "CC(C)([C@H]1C[C@H](NC(=O)c2ccc(Cl)c(F)c2)C1)S(=O)(=O)c1cccc(OC(F)(F)F)c1", "assayMetric": "pIC50", "censoringSign": "=", "assayResult": 5.24}
{"compound": "CC(C)S(=O)(=O)c1cc(C(F)(F)F)cnc1C(=O)NCC1CC(C(C)(C)S(=O)(=O)c2cccc(C(F)(F)F)c2)C1 (stereo not drawn)", "assayMetric": "pIC50", "censoringSign": "=", "assayResult": 5.10}
{"compound": "CC(C)([C@H]1C[C@H](NC(=O)CC2(N)CCCCC2)C1)S(=O)(=O)c1cccc(OC(F)(F)F)c1", "assayMetric": "pIC50", "censoringSign": "≤", "assayResult": 5.00}
{"compound": "O=C(NC[C@H]1C[C@H](S(=O)(=O)c2cccc(OC(F)(F)F)c2)C1)c1cnc(C(F)(F)F)nc1", "assayMetric": "pIC50", "censoringSign": "≤", "assayResult": 5.00}
{"compound": "CC(C)([C@H]1C[C@@H](CNC(=O)c2ccc(OCC(F)(F)F)nc2)C1)S(=O)(=O)c1cccc(C(F)(F)F)c1", "assayMetric": "pIC50", "censoringSign": "=", "assayResult": 5.35}
{"compound": "CC(C)([C@H]1C[C@H](NC(=O)c2ccnc(C(F)(F)F)n2)C1)S(=O)(=O)c1cccc(OC(F)(F)F)c1", "assayMetric": "pIC50", "censoringSign": "≤", "assayResult": 5.00}
{"compound": "CC(C)S(=O)(=O)c1cc(C(F)(F)F)cnc1C(=O)NC[C@H]1C[C@@H](C(C)(C)S(=O)(=O)c2cccc(C(F)(F)F)c2)C1", "assayMetric": "pIC50", "censoringSign": "≤", "assayResult": 5.00}
{"compound": "CC(C)S(=O)(=O)c1cc(C(F)(F)F)cnc1C(=O)N[C@H]1C[C@H](CC(C)(C)S(=O)(=O)c2cccc(C(F)(F)F)c2)C1", "assayMetric": "pIC50", "censoringSign": "=", "assayResult": 5.11}
{"compound": "CC(C)([C@H]1C[C@H](NC(=O)c2ccc(OCC(F)(F)F)nc2)C1)S(=O)(=O)c1cccc(C(F)(F)F)c1", "assayMetric": "pIC50", "censoringSign": "=", "assayResult": 5.11}
{"compound": "CC(C)([C@H]1C[C@H](Nc2ccnc(C(F)(F)F)n2)C1)S(=O)(=O)c1cc(F)cc(C(F)(F)F)c1", "assayMetric": "pIC50", "censoringSign": "=", "assayResult": 5.19}
{"compound": "CC(C)([C@H]1C[C@@H](Nc2ccnc(C(F)(F)F)n2)C1)S(=O)(=O)c1cc(F)cc(C(F)(F)F)c1", "assayMetric": "pIC50", "censoringSign": "=", "assayResult": 5.08}
{"compound": "CC(C)([C@H]1C[C@@H](CNC(=O)c2ccnc(C(F)(F)F)c2)C1)S(=O)(=O)c1cccc(C(F)(F)F)c1", "assayMetric": "pIC50", "censoringSign": "≤", "assayResult": 5.00}
{"compound": "CC(C)([C@H]1C[C@@H](NC(=O)c2ccc(Cl)c(F)c2)C1)S(=O)(=O)c1cccc(OC(F)(F)F)c1", "assayMetric": "pIC50", "censoringSign": "=", "assayResult": 5.31}
{"compound": "CS(=O)(=O)c1cc(Cl)ccc1C(=O)NC[C@H]1C[C@H](S(=O)(=O)c2cc(F)cc(C(F)(F)F)c2)C1", "assayMetric": "pIC50", "censoringSign": "≤", "assayResult": 5.00}
{"compound": "O=S(=O)(c1cccc(OC(F)(F)F)c1)[C@H]1C[C@@H](CNc2ccnc(C(F)(F)F)n2)C1", "assayMetric": "pIC50", "censoringSign": "=", "assayResult": 5.04}
{"compound": "CC(C)([C@H]1C[C@@H](NS(=O)(=O)c2ccc(C(F)(F)F)cc2Cl)C1)S(=O)(=O)c1cccc(C(F)(F)F)c1", "assayMetric": "pIC50", "censoringSign": "≤", "assayResult": 5.00}
{"compound": "CC(C)([C@H]1C[C@@H](NS(=O)(=O)c2ccc(Cl)c(F)c2)C1)S(=O)(=O)c1cc(F)cc(C(F)(F)F)c1", "assayMetric": "pIC50", "censoringSign": "=", "assayResult": 5.16}

====

Form field: CAv1.2 IC50 Ratio closed/inact. (one value per entry).
Target: CAv1.2 (Homo sapiens, UniProt Q13936)
Test: L-type (CAv1.2) channel blocking, FLIPR data (Table 6)
Type: cell-based
Details: ratio closed/inact.
assayMetric: CAv1.2 IC50 Ratio closed/inact.

{"molecule": "Cc1nc(C(F)(F)F)ccc1NC(=O)[C@H]1C[C@H](C(C)(C)S(=O)(=O)c2cccc(C(F)(F)F)c2)C1 [Compound 768]", "targetEntity": "CAv1.2 (Homo sapiens, UniProt Q13936)", "assayMetric": "CAv1.2 IC50 Ratio closed/inact.", "assayResult": 2.3}
{"molecule": "CC(C)([C@H]1C[C@H](CNc2ccc(F)c(Cl)c2)C1)S(=O)(=O)c1cccc(C(F)(F)F)c1 [Compound 750]", "targetEntity": "CAv1.2 (Homo sapiens, UniProt Q13936)", "assayMetric": "CAv1.2 IC50 Ratio closed/inact.", "assayResult": 3.5}
{"molecule": "Cn1nc(C(F)(F)F)cc1NC(=O)[C@H]1C[C@H](C(C)(C)S(=O)(=O)c2cccc(C(F)(F)F)c2)C1 [Compound 769]", "targetEntity": "CAv1.2 (Homo sapiens, UniProt Q13936)", "assayMetric": "CAv1.2 IC50 Ratio closed/inact.", "assayResult": 5.8}
